Field: IC50. Provide a value for each of the compounds that follow.
Biological target: dopamine D2 receptors (Rattus norvegicus, UniProt P61169)
Sequence (P61169 1-415 isoform P61169-2): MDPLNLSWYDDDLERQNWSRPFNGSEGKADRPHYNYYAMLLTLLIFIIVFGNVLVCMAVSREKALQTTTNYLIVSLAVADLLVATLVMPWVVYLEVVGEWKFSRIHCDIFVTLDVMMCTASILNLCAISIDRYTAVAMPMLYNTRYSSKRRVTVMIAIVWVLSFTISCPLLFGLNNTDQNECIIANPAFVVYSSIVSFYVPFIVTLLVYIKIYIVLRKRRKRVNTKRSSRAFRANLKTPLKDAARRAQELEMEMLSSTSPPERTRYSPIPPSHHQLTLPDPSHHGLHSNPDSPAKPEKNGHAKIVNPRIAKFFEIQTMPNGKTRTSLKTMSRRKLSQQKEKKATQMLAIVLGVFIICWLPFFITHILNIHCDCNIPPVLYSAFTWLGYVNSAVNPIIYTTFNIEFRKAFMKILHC
Assay: Radioligand binding assay, D2 receptors
Settings: rat brain tissues; read-out: D2 IC50 [nM] ± SEM
Respond numerically; units are nM and should not be typed.

Ask | Please report the recorded IC50 for Cc1cccc(CN2C3CCC2CC(NC(=O)c2cnc4ccccc4c2)C3)c1 (centres unmarked) [Compound 12f] .
Reply | 2730

Ask | Please report the recorded IC50 for Nc1ccccc1CN1C2CCC1CC(NC(=O)c1ccc3ccccc3c1)C2 (centres unmarked) [Compound 19a] .
Reply | 209

Ask | Please report the recorded IC50 for Nc1cccc(CN2C3CCC2CC(NC(=O)c2ccc4ccccc4c2)C3)c1 (centres unmarked) [Compound 19b] .
Reply | 1560

Ask | Please report the recorded IC50 for O=C(NC1CC2CCC(C1)N2Cc1ccccn1)c1ccc2ccccc2n1 (centres unmarked) [Compound 12l] .
Reply | 3080

Ask | Please report the recorded IC50 for Cc1ccccc1CN1C2CCC1CC(NC(=O)c1ccc3ccccc3n1)C2 (centres unmarked) [Compound 12a] .
Reply | 263

Ask | Please report the recorded IC50 for Cc1ccccc1CN1C2CCC1CC(NC(=O)c1cnc3ccccc3c1)C2 (centres unmarked) [Compound 12b] .
Reply | 1630

* * *

Field: Ki. Provide a value for each of the compounds that follow.
Biological target: dopamine D2 receptors (Rattus norvegicus, UniProt P61169)
Experiment: Radioligand binding assay, D2 receptors
Conditions: rat brain tissues; read-out: D2 Ki [nM] ± SEM

Ask | Please report the recorded Ki for COc1cc(C(=O)NC2CC3CCC(C2)N3Cc2ccncc2)nc2ccccc12 (stereo not drawn) [Compound 12w] .
Reply | > 10000 nM

Ask | Please report the recorded Ki for O=C(NC1CC2CCC(C1)N2Cc1ccccn1)c1cnc2ccccc2c1 (stereo not drawn) [Compound 12m] .
Reply | > 10000 nM

Ask | Please report the recorded Ki for O=C(NC1CC2CCC(C1)N2Cc1ccncc1)c1ccc2ccccc2n1 (stereo not drawn) [Compound 12t] .
Reply | > 10000 nM

* * *

Target: serotonin 5-HT1A receptors (Rattus norvegicus, UniProt P19327)
Construct: from tissue; host or cells: rat brain tissues
Sequence (P19327 whole entry): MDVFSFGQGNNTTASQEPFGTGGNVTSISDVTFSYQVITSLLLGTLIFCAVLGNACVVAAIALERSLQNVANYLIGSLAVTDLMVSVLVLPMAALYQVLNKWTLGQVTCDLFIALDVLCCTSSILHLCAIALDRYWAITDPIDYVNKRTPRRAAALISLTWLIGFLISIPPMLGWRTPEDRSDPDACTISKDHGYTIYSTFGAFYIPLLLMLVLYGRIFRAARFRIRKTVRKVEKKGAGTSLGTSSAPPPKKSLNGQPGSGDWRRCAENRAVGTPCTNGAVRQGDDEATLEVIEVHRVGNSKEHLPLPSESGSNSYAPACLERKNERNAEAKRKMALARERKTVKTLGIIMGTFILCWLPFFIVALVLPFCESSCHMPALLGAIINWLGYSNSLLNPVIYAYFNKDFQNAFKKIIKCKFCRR
Experiment: Radioligand binding assay, 5-HT1A receptors
Conditions: rat brain tissues; read-out: 5-HT1A Ki [nM] ± SEM
measurement_label: Ki (nM)
Respond numerically; units are nM and should not be typed.

Ask | Please report the recorded Ki for O=C(NC1CC2CCC(C1)N2Cc1ccccn1)c1cnc2ccccc2c1 (stereo not drawn) [Compound 12m] .
Reply | 283

Ask | Please report the recorded Ki for Nc1cccc(CN2C3CCC2CC(NC(=O)c2ccc4ccccc4c2)C3)c1 (stereo not drawn) [Compound 19b] .
Reply | 286

Ask | Please report the recorded Ki for O=C(NC1CC2CCC(C1)N2Cc1ccccn1)c1ccc2ccccc2n1 (stereo not drawn) [Compound 12l] .
Reply | 221
